Data origin, for the record: paper PMC4336329

Item-by-item account of hERG current change (%, negative = inhibition) at 1uM
Biological target: human ether-à-go-go-related gene (hERG) potassium channel (human)
Sequence (Q12809 whole entry, looked up): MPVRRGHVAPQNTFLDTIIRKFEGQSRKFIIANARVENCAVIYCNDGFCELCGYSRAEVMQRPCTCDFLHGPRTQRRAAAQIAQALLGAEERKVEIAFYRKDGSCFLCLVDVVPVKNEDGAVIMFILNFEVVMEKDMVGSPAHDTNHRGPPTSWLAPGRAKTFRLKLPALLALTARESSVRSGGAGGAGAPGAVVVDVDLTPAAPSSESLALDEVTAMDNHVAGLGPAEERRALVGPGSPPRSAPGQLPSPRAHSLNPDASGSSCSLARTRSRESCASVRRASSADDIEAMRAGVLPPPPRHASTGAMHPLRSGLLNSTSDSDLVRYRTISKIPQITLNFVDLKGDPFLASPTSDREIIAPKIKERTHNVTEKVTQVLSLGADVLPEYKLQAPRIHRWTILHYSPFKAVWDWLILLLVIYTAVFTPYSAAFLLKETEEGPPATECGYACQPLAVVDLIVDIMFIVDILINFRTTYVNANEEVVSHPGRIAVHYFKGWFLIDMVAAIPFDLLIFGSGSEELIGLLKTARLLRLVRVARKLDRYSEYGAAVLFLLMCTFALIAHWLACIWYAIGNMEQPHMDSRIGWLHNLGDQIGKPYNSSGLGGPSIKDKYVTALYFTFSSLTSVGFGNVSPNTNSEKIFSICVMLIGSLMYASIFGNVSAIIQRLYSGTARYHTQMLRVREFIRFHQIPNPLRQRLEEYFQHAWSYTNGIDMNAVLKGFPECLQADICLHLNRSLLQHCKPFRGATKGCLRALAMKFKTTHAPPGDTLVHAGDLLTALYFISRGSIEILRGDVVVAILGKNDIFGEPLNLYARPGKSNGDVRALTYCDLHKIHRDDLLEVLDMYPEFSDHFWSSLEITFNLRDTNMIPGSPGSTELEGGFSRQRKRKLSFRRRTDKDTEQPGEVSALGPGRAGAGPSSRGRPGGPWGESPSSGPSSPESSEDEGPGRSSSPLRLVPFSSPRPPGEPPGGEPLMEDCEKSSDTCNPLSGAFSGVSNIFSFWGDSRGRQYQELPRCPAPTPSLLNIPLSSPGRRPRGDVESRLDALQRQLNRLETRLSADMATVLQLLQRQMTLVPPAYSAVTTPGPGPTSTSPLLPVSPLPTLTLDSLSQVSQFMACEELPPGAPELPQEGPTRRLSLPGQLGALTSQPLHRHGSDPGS
Assay: primary screen, population patch clamp on CHO cells stably expressing hERG; higher = less effect of the substance
From the text: Briefly, Chinese hamster ovary (CHO) cells stably expressing the hERG channel were dislodged from tissue culture flasks and dispensed into PPC plates. […] Small molecule effects on hERG current density were quantified by […].
Screen size: about 310,000 compounds; about 2,200 (0.71%) showed an effect of 50% or more. Effects have a minus sign here. The sample holds strong results, similar compounds and a random draw of the others, so the mix is not that of the screen.

Take a look at these entries with their results.
COc1ccc(CCC(=O)Nc2nc3ccccc3[nH]2)cc1OC ... -51.1%
O=C(/C=C/c1cccc([N+](=O)[O-])c1)N1CCN(Cc2ccccc2)CC1 ... -20.3%
Cc1cc(N2CCN(c3ccccn3)CC2)n2cc(-c3ccccc3)nc2n1 ... -65.4%
Cc1cc(N2CCOCC2)n2cc(-c3ccccc3)nc2n1 ... -14.6%
O=C(/C=C/c1ccc([N+](=O)[O-])cc1)N1CCN(Cc2ccccc2)CC1 ... -63.8%

Return reported hERG current change (%, negative = inhibition) at 1uM; argument: Cc1nc2nc(-c3ccc(Cl)cc3)nn2c(C)c1Cl 13.4%

Param item = COc1cccc(-c2cc(CC3(O)CCN(CCCc4ccccc4)CC3)on2)c1 ; retrieve measured hERG current change (%, negative = inhibition) at 1uM. -39.3%

Data request, read-out hERG current change (%, negative = inhibition) at 1uM, for CCCCn1c(N)c(N(CC(C)C)C(=O)C2CCN(S(=O)(=O)c3ccc(C)cc3C)CC2)c(=O)[nH]c1=O 2.62%

Any idea what its hERG current change (%, negative = inhibition) at 1uM is? The compound is [Cl-].c1ccc(C[n+]2cccc3c4ccccc4ccc32)cc1 -2.14%

Look up hERG current change (%, negative = inhibition) at 1uM for this compound: C=CC[N+]1(CC=C)CCOCC1.[Br-] 34.2%

What does the data say about its hERG current change (%, negative = inhibition) at 1uM? Entry: OC1(Cc2cc(-c3ccccc3)no2)CCN(CCCc2ccccc2)CC1 -55.5%

====

Target: human ether-à-go-go-related gene (hERG) potassium channel (human)
Assay: primary screen, population patch clamp on CHO cells stably expressing hERG; higher = less effect of the substance
Among all 310,000 compounds or so, about 2,200 (0.71%) showed an effect of 50% or more. The effect is printed as a negative number. The entries come from a sample that favours strong results as a whole.
Categorize each record by its hERG current change (%, negative = inhibition) at 1uM using lower (below -60%), middle (-60% to below -40%), upper (-40% or more)

O=C(O)CCSc1nc2ccccc2n1Cc1ccccc1 ... upper
CCCN(CCC)CCCOC(=O)c1ccc(Cl)cc1Cl.Cl ... middle
O=C(NCCNC(=O)c1cccnc1)c1ccc(Br)cc1 ... upper
NNc1nnc2c3cc(F)ccc3n(Cc3ccccc3)c2n1 ... upper
[Cl-].[NH3+]CCCn1c(C(=O)c2ccc(Cl)cc2)c2ccc([N+](=O)[O-])cc2[n+]1[O-] ... middle

Entry Nc1c(Cl)cc(C(=O)c2c3ccc(C(F)(F)F)cc3[n+]([O-])n2CCC[NH3+])cc1Cl.[Cl-] belongs to which category? upper

Sort Cc1ccc(-c2cc(-c3ccccc3)cc(-c3ccccc3)[n+]2-c2ccccc2)cc1.[O-][Cl+3]([O-])([O-])[O-] into one of the categories. lower

Any idea which band Cc1ccc(C(=O)c2c3ccc(C(F)(F)F)cc3[n+]([O-])n2CCC[NH3+])cc1.O=C([O-])C(F)(F)F is in? lower
